testedTarget: T1, human IL-5 (human, UniProt P05113 20-134)
T1 sequence (looked up): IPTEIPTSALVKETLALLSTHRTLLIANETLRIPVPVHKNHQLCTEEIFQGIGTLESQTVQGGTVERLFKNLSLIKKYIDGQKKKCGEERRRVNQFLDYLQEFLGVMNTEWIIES
methodNotes: cell-based or functional assay
observationType: IC50 (pM), proliferation assay with hIL-5 (0.25 ng/mL)
Number only, in pM; omit the unit.

[[record]]
binder = "h5MP90A9 human IL-5 mAb (antibody, V domains shown) VH: EVQLVESGGGLVQPGGSLRLSCAASGFAFSSSFMSWVRQAPGKGLEWVSTINGNGGTYYADSMKGRFTISRDNVKSTVTLQMNSLKPEDTAVYYCAADWISGGYYFPALGYWGQGTQVTVSS VL: SYELTQSPSLSVALRQTAKMTCGGNKIGSKSAQWYQQKPGQAPVLVIYADSRRPSGIPERFAGSNAGNTATLTISGAQAEDEADYYCQVWDISANAAVFGGGTHLTVL"
experimentalvalue = 4.99

[[record]]
binder = "h5MP90C8 human IL-5 mAb (antibody, V domains shown) VH: EVQLVESGGGLVQPGGSLRLSCAASGFAFSSSFMSWVRQAPGKGLEWVSTINGNGGTYYADSMKGRFTISRDNVKSTVTLQMNSLKPEDTAVYYCAADWISGGYYFPALGYWGQGTQVTVSS VL: SYELTQSPSVSVALRQTAKITCGGDNIGSKSAQWYQQSPGQAPVLVIYADASRPSGIPERFSGSNSGNTATLTISGARAEDEADYYCQVWDTSTNAAVFGGGTHLTVL"
experimentalvalue = 6.93


Now for the binder whose IC50 (pM), proliferation assay with hIL-5 (0.25 ng/mL) we want.
[ask] Kindly indicate its recorded IC50 (pM), proliferation assay with hIL-5 (0.25 ng/mL). Item: h5MP90D9 human IL-5 mAb (antibody, V domains shown) VH: EVQLVESGGGLVQPGGSLRLSCAASGFAFSSSFMSWVRQAPGKGLEWVSTINGNGGTYYADSMKGRFTISRDNVKSTVTLQMNSLKPEDTAVYYCAADWISGGYYFPALGYWGQGTQVTVSS VL: SYELTQSPSVSVALRQTAKITCGGNNIGSLSTQWYQQKPGQAPVLVIYADNRRPSGIHERFSGSNSGNTATLTIGGAQAEDEADYYCQVWDNSANALVFGGGTHLTVL
[reply] 6.84

// provenance: patent US20200399382A1
